Source of measurements: paper PMC5859730

System: thioredoxin reductase (TrxR)
study-conditions: A549, 1.25–5.0 μM, 6 h exposure, lipoate reduction
measured-metric: Inhibition of TrxR at higher concentrations

1. Cc1cc(C)c(-[n+]2ccn(Cc3ccccc3)[c]2[Au-][c]2n(Cc3ccccc3)cc[n+]2-c2c(C)cc(C)cc2C)c(C)c1.[Cl-] [Complex 5, reference compound]
became evident
2. Cc1cc(C)c(-n2c[n+](-c3c(C)cc(C)cc3C)c3c2C(=O)c2ccccc2C3=O)c(C)c1 [4[H][Cl], 1,3-dimesitylnaphthoquinimidazolium]
became evident
3. Cc1cc(C)c(-n2c3c([n+](-c4c(C)cc(C)cc4C)[c]2[Au-][Cl])C(=O)c2ccccc2C3=O)c(C)c1 [Complex 3]
remained inactive
4. COc1cccc2c1C(=O)c1c(O)c3c(c(O)c1C2=O)C[C@@](O)(C(=O)CO)C[C@@H]3O[C@H]1C[C@H](N)[C@H](O)[C@H](C)O1 [Doxorubicin, reference compound]
remained inactive
